Origin of the recorded values: paper PMC7897990

Test system: Trichomonas vaginalis G3 trophozoites
condition.set: HTS, parasite screen at 1 µg/mL, replicate 1
Listing of entries alongside the reported T.vaginalis_%inb_Rep1.

These solved cases illustrate the format of a correct answer.
compound	T.vaginalis_%inb_Rep1
OCC1=CC(NC2CC(CO)C(OC3OC(CO)C(O)C(O)C3O)C(O)C2O)C(O)C(O)C1O (stereo not drawn)	14.26%
CO[C@H]1C[C@H](O[C@@H]2/C(C)=C/C[C@@H]3C[C@@H](C[C@]4(C=C[C@H](C)[C@@H](C5CCCCC5)O4)O3)OC(=O)[C@@H]3C=C(C)[C@@H](O)[C@H]4OC/C(=C\C=C\[C@@H]2C)[C@]43O)O[C@@H](C)[C@@H]1O [Doramectin monosaccharide]	13.89%
CN[C@@H]1C[C@H]2O[C@@](C)([C@@H]1OC)n1c3ccccc3c3c4c(c5c6ccccc6n2c5c31)C(=O)N[C@H]4O [UCN-01]	11.33%
CS(=O)(=O)c1ccc([C@@H](O)[C@H](N)CF)cc1.Cl [Florfenicol amine HCl]	15.67%
CCCCCC[C@H]1C(=O)O[C@H](C)[C@@H](O)/C=C/C=C/C=C/C=C/C=C(\C)[C@@H](O)C[C@H](O)C[C@H](O)C[C@H](O)C[C@H](O)C[C@H](O)C[C@@H]1O	13.79%

// query T.vaginalis_%inb_Rep1 value for entry CCC/C=C/C=C/C1C[C@@H](O)[C@@H](O)C(=O)[C@H]1C=O (stereo partly drawn) 13.62%

* * *

System: Trichomonas vaginalis G3 trophozoites
condition.set: HTS, parasite screen at 1 µg/mL, replicate 2
Label y when T.vaginalis_%inb_Rep2 is at or above 10%; anything below gets n.

# count of solved cases: 8
molecule	classification
COC1=C(OC)C(O)C(C)C(C)C1=O (stereo not shown)	n
CCC/C=C/C=C/C1C[C@@H](O)[C@@H](O)C(=O)[C@H]1C=O (stereo partly shown)	n
CC(=O)OC1CCC2(C)C3=C(CCC2C1(C)C)C1(C)CCC(C(C)CCC=C(C)C)C1(C)CC3 (stereo not shown) [Euphol acetate]	y
CC[C@H]1OC(=O)[C@H](C)[C@@H](O[C@H]2C[C@@](C)(O)[C@@H](O)[C@H](C)O2)[C@H](C)[C@@H](O[C@@H]2O[C@H](C)C[C@H](N(C)C)[C@H]2O)[C@](C)(O)C[C@@H](C)C(=O)[C@H](C)[C@@H](O)[C@]1(C)O	n
COC12c3c(C)cc(O)c4c(=O)occ(c34)C(=O)C1C13COC(=O)c4c(O)cc(C)c(c41)C(=O)C2C3OC(C)=O (stereo not shown)	y
CCCC[C@@H](C)[C@@H](OC(=O)C[C@@H](CC(=O)O)C(=O)O)[C@H](C[C@@H](C)C[C@H](O)CCCC[C@@H](O)C[C@H](O)[C@H](C)N)OC(=O)C[C@@H](CC(=O)O)C(=O)O	y
C[C@@H]1CCC[C@@H](O)CCC/C=C/c2cc(O)cc(O)c2C(=O)O1	y
CC[C@H](C)[C@H]1O[C@]2(C=C[C@@H]1C)C[C@@H]1C[C@@H](C/C=C(\C)[C@@H](O[C@H]3C[C@H](OC)[C@@H](O[C@H]4C[C@H](OC)[C@H](NC(C)=O)[C@H](C)O4)[C@H](C)O3)[C@@H](C)/C=C/C=C3\CO[C@@H]4[C@H](O)C(C)=C[C@@H](C(=O)O1)[C@]34O)O2	y

Hi, just wondering whether COc1ccc2cc1Oc1cc(ccc1O)[C@H](O)[C@]13SS[C@@]4(C(=O)N1C)[C@H](O)C1=COC=C[C@H](OC2=O)[C@H]1N4C3=O [Emestrin, emestrin, reference compound] shows T.vaginalis_%inb_Rep2 of 10% or higher. y

Check the entry COc1cccc2nc3c(OC)cccc3nc12 : does T.vaginalis_%inb_Rep2 equal or exceed 10%? y

Does the reported T.vaginalis_%inb_Rep2 for CC1CCCC(O)CCCCCc2cc(O)cc(O)c2C(=O)O1 (stereo not drawn) [Zearalanol, alpha-] fall at or above the 10% mark? y

Does the molecule CCOC(=O)c1c(C)cc(O)cc1O [Ethyl orsellinate] have recorded T.vaginalis_%inb_Rep2 that is 10% or more? y

Does CCCCCCC(C)C/C(C)=C\C(/C=C(C)/C=C/C(O)C(C)(C)c1cc(O)c([C@@H]2O[C@H](CO)C[C@H](O)[C@H]2O)c(=O)o1)CO (stereo partly shown) have a reported T.vaginalis_%inb_Rep2 of at least 10%? y

* * *

Test system: Trichomonas vaginalis G3 trophozoites
condition.set: HTS single concentration, parasite screen 1 µg/mL, replicate 2
Collected T.vaginalis_%inb_Rep2 values appear next to each entry.
Quick reminder: number only, in %, skip the unit.

Below: 4 compounds and their reported T.vaginalis_%inb_Rep2.
CCC(=O)Nc1c2sscc-2n(C)c1=O 82.07
CO[C@H]1C[C@H](O[C@H]2[C@H](C)O[C@@H](O[C@@H]3/C(C)=C/C[C@@H]4C[C@@H](C[C@]5(C=C[C@H](C)[C@@H](C(C)C)O5)O4)OC(=O)[C@@H]4C=C(C)[C@@H](O)[C@H]5OC/C(=C\C=C\[C@@H]3C)[C@]54O)C[C@@H]2OC)O[C@@H](C)[C@@H]1O 18.51
CC(C)C[C@H]1C(=O)O[C@H](C(C)C)C(=O)N(C)[C@@H](CC(C)C)C(=O)O[C@H](C(C)C)C(=O)N(C)[C@@H](CC(C)C)C(=O)O[C@H](C(C)C)C(=O)N(C)[C@@H](CC(C)C)C(=O)O[C@H](C(C)C)C(=O)N1C 16.12
CC(=O)NCCc1ccc(O)cc1 10.05

Form: Entry = C=C(C)[C@@H]1CC[C@]2(C(=O)OC)CC[C@]3(C)[C@H](CC[C@@H]4[C@@]5(C)CC[C@H](O)C(C)(C)[C@@H]5CC[C@]43C)[C@@H]12 | System = Trichomonas vaginalis G3 trophozoites | T.vaginalis_%inb_Rep2 = ____ 16.56

T.vaginalis_%inb_Rep2 of CC(=O)O[C@@H]1C[C@]2(C)[C@@]3(CO)[C@H](O)C(=O)C(C)=C[C@H]3O[C@H]1[C@@]21CO1 on Trichomonas vaginalis G3 trophozoites? 14.14

* * *

System: Trichomonas vaginalis G3 trophozoites
condition.set: HTS single concentration, parasite screen 1 µg/mL, replicate 2
readout: T.vaginalis_%inb_Rep2 (%)
Only the number, expressed in %, is required.

Example entries and their recorded answers appear below.
molecule	observed.result
CC[C@H](C)[C@H]1O[C@]2(C=C[C@@H]1C)C[C@@H]1C[C@@H](C/C=C(\C)[C@@H](O)[C@@H](C)/C=C/C=C3\CO[C@@H]4[C@H](O)C(C)=C[C@@H](C(=O)O1)[C@]34O)O2	16.27
CC(=O)N[C@H]1CCOC1=O	26.61
COc1ccc(C[C@H]2NC[C@H](O)[C@H]2OC(C)=O)cc1	97.54
O=C1c2c(O)cc(O)cc2OC1(O)Cc1ccc(O)c(O)c1 (centres unmarked)	38.61
C=C1CCOC2(C(O)C(C)(O)CO)NC(=O)C1(O)NC2=O (centres unmarked)	15.26

Could you share which T.vaginalis_%inb_Rep2 value was measured for CC=CC(C)=CC(C)C(=O)CC(O)CC1CC(=O)NC(=O)C1 (centres unmarked) ? 13.41

What does the data say about its T.vaginalis_%inb_Rep2? Entry: COc1cc2c(c3oc(=O)c4c(c13)CCOC4=O)[C@@H]1CCO[C@@H]1O2 13.81

Which T.vaginalis_%inb_Rep2 is listed for C=C(C)[C@@H]1CC[C@]2(C(=O)O)CC[C@]3(C)[C@H](CC[C@@H]4[C@@]5(C)CC[C@H](O)C(C)(C)[C@@H]5CC[C@]43C)[C@@H]12 ? 7.30

* * *

System: Trichomonas vaginalis G3 trophozoites
condition.set: parasite screen at 1 µg/mL, replicate 2
readout: T.vaginalis_%inb_Rep2 (%)
Record the value in %, omitting the unit from your answer.

See these solved cases before continuing.
compound	T.vaginalis_%inb_Rep2 (%)
Nc1ncnc2c1ncn2[C@@H]1O[C@H](C[C@@H](N)CC[C@H](N)C(=O)O)[C@@H](O)[C@H]1O [BIA-S1376]	25.29
CN[C@@H]1C[C@H]2O[C@@](C)([C@@H]1OC)n1c3ccccc3c3c4c(c5c6ccccc6n2c5c31)C(=O)NC4 [BIA-S1086]	83.24

May I ask what T.vaginalis_%inb_Rep2 has been recorded for CSC[S@@+]([O-])CC(CO)NC(=O)/C=C/c1c(C)[nH]c(=O)[nH]c1=O (some centres unmarked) [BIA-S1798] ? 88.33

Entry C/C=C/c1cc2c(c(=O)o1)[C@H](O)[C@@H](O)[C@H](C)O2 [BIA-R1896] has what T.vaginalis_%inb_Rep2? 5.58

Item under review: CCC1OC(=O)C(C)C(=O)C(C)C(OC2OC(C)CC(N(C)C)C2O)C(C)(OC)CC(C)C(=O)C(C)C2N(CCCCn3cnc(-c4cccnc4)c3)C(=O)OC12C (centres unmarked) [BIA-T1316] . Reported T.vaginalis_%inb_Rep2? 5.97
